Data credit: paper PMC4336329

Target: human ether-à-go-go-related gene (hERG) potassium channel (human, UniProt Q12809);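 also: peak tail current of the secondary pulse compared with the same well before compound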
Sequence (Q12809 whole entry, looked up): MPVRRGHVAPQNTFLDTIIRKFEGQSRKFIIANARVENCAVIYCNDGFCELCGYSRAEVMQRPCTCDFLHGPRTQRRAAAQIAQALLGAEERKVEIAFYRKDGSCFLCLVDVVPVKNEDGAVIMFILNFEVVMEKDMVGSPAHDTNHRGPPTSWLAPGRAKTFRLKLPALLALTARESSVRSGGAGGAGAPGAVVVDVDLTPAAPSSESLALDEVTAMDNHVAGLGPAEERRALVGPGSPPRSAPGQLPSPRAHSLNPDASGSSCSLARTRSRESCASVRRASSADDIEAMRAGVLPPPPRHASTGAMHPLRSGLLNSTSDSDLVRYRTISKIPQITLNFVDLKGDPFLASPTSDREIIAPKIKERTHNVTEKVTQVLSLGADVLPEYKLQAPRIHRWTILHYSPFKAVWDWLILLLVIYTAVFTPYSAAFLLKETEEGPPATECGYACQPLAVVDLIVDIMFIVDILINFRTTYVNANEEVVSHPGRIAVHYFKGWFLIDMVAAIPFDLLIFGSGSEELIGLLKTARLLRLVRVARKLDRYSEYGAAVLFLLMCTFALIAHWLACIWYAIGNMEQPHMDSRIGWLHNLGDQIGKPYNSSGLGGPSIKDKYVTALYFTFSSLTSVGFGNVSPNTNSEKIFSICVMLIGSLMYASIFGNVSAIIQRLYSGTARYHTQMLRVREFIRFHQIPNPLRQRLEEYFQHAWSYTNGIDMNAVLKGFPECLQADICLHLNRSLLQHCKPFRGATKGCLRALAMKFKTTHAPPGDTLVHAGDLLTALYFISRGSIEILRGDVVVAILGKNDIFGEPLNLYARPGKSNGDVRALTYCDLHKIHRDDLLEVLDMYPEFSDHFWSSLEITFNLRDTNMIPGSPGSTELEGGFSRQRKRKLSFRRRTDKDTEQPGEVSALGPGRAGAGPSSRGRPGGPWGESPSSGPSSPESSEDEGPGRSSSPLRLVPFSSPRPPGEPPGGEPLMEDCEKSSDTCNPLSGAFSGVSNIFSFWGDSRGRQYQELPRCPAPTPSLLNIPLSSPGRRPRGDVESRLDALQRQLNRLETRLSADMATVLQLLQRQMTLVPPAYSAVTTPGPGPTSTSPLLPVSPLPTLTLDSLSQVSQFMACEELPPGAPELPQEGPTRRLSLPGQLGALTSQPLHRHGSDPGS
Assay: primary screen, population patch clamp on CHO cells stably expressing hERG; higher = less effect of the substance
About 14,000 (4.5%) of roughly 310,000 compounds showed an effect of 50% or more. The effect is printed as a negative number. The sample as a whole holds a higher share of strong results than the screen did.
MEASURED_ENDPOINT: hERG current change (%, negative = inhibition) at 10uM (%)
Give bare numbers, in %.

A selection of reference data follows.
# COMPOUND, TGT, UNIT_SYMBOL, RECORDED_NUMBER
records = [
    ("COC(=O)c1ccc(C(=O)OC)c(NC(=S)N2CCN(c3ccccc3F)CC2)c1", "human ether-à-go-go-related gene (hERG) potassium channel (human, UniProt Q12809)", "%", -52.9),
    ("CCOc1cccc(=O)c2c(C)n(CC3CCCO3)c(C)c12 (centres unmarked)", "human ether-à-go-go-related gene (hERG) potassium channel (human, UniProt Q12809)", "%", -2.39),
    ("COC(=O)c1ccc(NC(=O)CS(=O)(=O)Cc2ccccc2)cc1", "human ether-à-go-go-related gene (hERG) potassium channel (human, UniProt Q12809)", "%", 1.28),
    ("CCN(CC)c1ccc(NC(=O)Cn2cc3c(n2)CCC(C)C3)c(C)c1 (centres unmarked)", "human ether-à-go-go-related gene (hERG) potassium channel (human, UniProt Q12809)", "%", -3.35),
    ("CCOC(=O)C1CCCN(C(=O)c2cn(CC(C)C)c(=O)c3cc(OC)c(OC)cc23)C1 (centres unmarked)", "human ether-à-go-go-related gene (hERG) potassium channel (human, UniProt Q12809)", "%", 5.47),
    ("COC(=O)c1cc(C(=O)Nc2ccc(Cl)cn2)cc([N+](=O)[O-])c1", "human ether-à-go-go-related gene (hERG) potassium channel (human, UniProt Q12809)", "%", -19),
    ("CCOc1cccc(OCC)c2c(C)[n+](CC3CCCO3)c(C)c1-2.[O-][Cl+3]([O-])([O-])[O-] (centres unmarked)", "human ether-à-go-go-related gene (hERG) potassium channel (human, UniProt Q12809)", "%", -36.9),
    ("CCOc1cccc(=O)c2c(C)n(CC(=O)c3ccccc3)c(C)c12", "human ether-à-go-go-related gene (hERG) potassium channel (human, UniProt Q12809)", "%", -6.91),
]

// each compound listed below needs its hERG current change (%, negative = inhibition) at 10uM
1. CC(=O)n1cc(/C=C2/N=C(c3ccccc3)OC2=O)c2ccccc21
2. CCOc1cccc(=[NH+]C2CCCCC2)c2c(C)n(C)c(C)c12.[O-][Cl+3]([O-])([O-])[O-]
3. O=C(NCC1CCCO1)c1ccc[nH]1 (centres unmarked)
4. CCn1cc(C(=O)N2CCN(C3CCCCC3)CC2)c2cc(OC)c(OC)cc2c1=O
5. COc1ccc(NS(=O)(=O)c2ccc(NS(=O)(=O)c3cccs3)cc2)cc1

// result
1. 7.37
2. -70.3
3. 12.3
4. -20.6
5. 11.8

###

Biological target: human ether-à-go-go-related gene (hERG) potassium channel (human);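 also: peak tail current of the secondary pulse compared with the same well before compound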
Assay: primary screen, population patch clamp on CHO cells stably expressing hERG; higher = less effect of the substance
Hit rate of the full screen: of about 310,000 compounds, about 14,000 (4.5%) showed an effect of 50% or more. Effects have a minus sign here. This excerpt belongs to a sample that is enriched for strong results.
For each record, write down the corresponding hERG current change (%, negative = inhibition) at 10uM.
Give bare numbers, in %.

Example cases with answers are listed next.
# MOLECULE, RECORDED_NUMBER
measured = [
    ("Cc1cccc(Sc2nc(-c3ccccc3)ncc2C(=O)O)c1", 11.7),
    ("O=C(NCCOc1ccccc1)C1CCC(=O)N(Cc2ccc(Cl)cc2)C1 (centres unmarked)", -31.2),
    ("CC(=O)Oc1ccc2c(=O)oc(-c3ccc([N+](=O)[O-])cc3)nc2c1", 1.56),
    ("Cc1cc(NC(=O)CSc2nc(-c3ccc(Cl)cc3)cs2)no1", -5.45),
    ("CCN(CC)S(=O)(=O)c1ccc(C)c(NC(=O)CNc2cccc(S(=O)(=O)N3CCOCC3)c2)c1", -17.7),
    ("Cc1ccc(C)c(-n2c(Cc3cc(=O)[nH]c(=O)[nH]3)nnc2SCC(=O)NCc2ccco2)c1", 4.83),
]

Hi, could you look up hERG current change (%, negative = inhibition) at 10uM for each item in my list?
1. CC1(C)CC(NC(=O)c2ccc3c(c2)OCO3)CC(C)(C)N1
2. O=C(NCCCc1ccccc1)C1CCC(=O)N(Cc2ccc(Cl)cc2)C1 (centres unmarked)
3. CCc1nc(SCC(=O)N2CCC(C)CC2)c2c(=O)n(C)c(=O)n(C)c2n1
4. Cc1ccc(CNC(=O)C2CCC(=O)N(CCc3ccccc3)C2)s1 (centres unmarked)

// result
1. 4.65
2. -61.3
3. -11.6
4. -25.7

###

Target: human ether-à-go-go-related gene (hERG) potassium channel (human, UniProt Q12809);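 also: peak tail current of the secondary pulse compared with the same well before compound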
Test: primary screen, population patch clamp on CHO cells stably expressing hERG; higher = less effect of the substance
Protocol: Briefly, Chinese hamster ovary (CHO) cells stably expressing the hERG channel were dislodged from tissue culture flasks and dispensed into PPC plates. […] During the recording, background leak currents were estimated by a 100 ms step to -80 mV from an initial holding potential of -70 mV and subtracted from the subsequent current measurement. The campaign was conducted in two phases using slight differences in recording protocol. […]
Among all 310,000 compounds or so, about 14,000 (4.5%) showed an effect of 50% or more. The effect is printed as a negative number. Only a selection was taken, and strong results are over-represented in it overall.
MEASURED_ENDPOINT: hERG current change (%, negative = inhibition) at 10uM
For clarity, give the value followed by its unit.

# COMPOUND, RESULT
records = [
    ("Nc1cc(N2CCCCC2)c(Cl)cc1[N+](=O)[O-]", "-10.8%"),
    ("Cc1nn(C(C)C(=O)NCCN2CCCCCC2)c(=O)c2nn(-c3ccccc3)c(C)c12 (centres unmarked)", "21.6%"),
    ("Cc1nc2c(c(=O)c3ccccc3n2C)c(=O)n1C1CCCCCC1", "-0.582%"),
    ("CCCCC(=O)NC(=S)Nc1nnn(CCC)n1", "9.55%"),
    ("Cc1cc(O)c(CN2CC=C(c3ccccc3)CC2)cc1C(C)C", "-14.1%"),
]

Below is a list of compounds. For each, state its recorded hERG current change (%, negative = inhibition) at 10uM.
1. COc1ccc(C(C)=O)cc1CN1CC=C(c2ccccc2)CC1
2. Cn1c2ccccc2c(=O)c2c(=O)n(C3CCCCC3)c(-c3ccco3)nc21
3. FC(F)(F)c1ccccc1CN1CCC(Cc2ccccc2)CC1
4. CC(=O)N1c2ccc(S(=O)(=O)NCCc3ccc(S(N)(=O)=O)cc3)cc2CC1C (centres unmarked)
5. Cc1ccc(S(=O)(=O)N(C)C)cc1NC(=O)C1Cc2ccccc2CN1C(=O)c1ccco1 (centres unmarked)
6. CCOC(=O)c1[nH]c2ccccc2c1NC(C)=O
7. CCOC(=O)c1[nH]c2ccccc2c1N=C(C)N(CC)CC
8. COc1cc(OC)c(CN2CCC(Cc3ccccc3)CC2)cc1Br

// result
["-17%", "-53.9%", "12%", "13%", "-9.91%", "-3.18%", "-54.7%", "-70.9%"]

###

Molecular target: human ether-à-go-go-related gene (hERG) potassium channel (human, UniProt Q12809);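 also: peak tail current of the secondary pulse compared with the same well before compound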
Experiment: primary screen, population patch clamp on CHO cells stably expressing hERG; higher = less effect of the substance
About 14,000 (4.5%) of roughly 310,000 compounds showed an effect of 50% or more. Effects have a minus sign here. The full list was thinned out, with strong results kept by preference.
MEASURED_ENDPOINT: hERG current change (%, negative = inhibition) at 10uM (%)
Answers are plain numbers, in %.

Below are worked cases with known answers.
# MOLECULE, RECORDED_NUMBER
records = [
    ("Cc1c(Cl)cccc1NC(=O)Nc1ccn(C)n1", 5.52),
    ("COc1cc(OC)c(C2Nc3cccc4cccc(c34)N2)c(OC)c1", 6.67),
    ("O=C(CN1C(=O)/C(=C\\c2ccc(C(F)(F)F)cc2)Sc2ccccc21)NCc1ccco1", -5.39),
    ("COc1ccc(Br)cc1C1Nc2cccc3cccc(c23)N1", 20.2),
    ("CC(C)[C@H](NC(N)=O)C(=O)NCCc1ccc(Cl)cc1Cl", -27),
    ("CCOc1ccc(-c2csc(NC(=O)C3CCCO3)n2)cc1 (stereo not shown)", 4.35),
    ("Cn1c(NC(=O)C(C)(C)Oc2ccc(Cl)cc2)cc(=O)n(C)c1=O", -15),
    ("O=C(COc1ccc(Cl)cc1)Nc1cccc(-c2ccc3nncn3n2)c1", -51.9),
    ("COc1ccc(OCCN2CCN(C3CC(=O)N(CCC(C)C)C3=O)CC2)cc1 (stereo not shown)", -63.4),
]

Alright, here's another molecule for you.
// query # query: hERG current change (%, negative = inhibition) at 10uM of entry `O=c1cc(NS(=O)(=O)c2ccccc2)nc(SCc2ccccc2Cl)[nH]1`
// result 6.99
